System: HT29 colon
Assay: NCI-60 one-dose screen, 48 h
Details: 10 µM unless noted
The panel holds about 83,000 compounds, 20% with a hit somewhere; the sample as a whole holds those more often. Activity calls are given as the source filed them. How the source made its calls: active means growth percent below 10; inactive means the rest.
Outcomes: true (active), false (inactive)

# COMPOUND, LABEL_CLASS
measured = [
    ("COc1cc2c(cc1OCCCOc1cc3c(cc1OC)C(=O)N1CCC[C@H]1C=N3)C=CC(C)(C)O2", "false"),
    ("COc1cc(-c2nc(-c3nc4cc(C(=O)c5ccccc5)ccc4[nH]3)cc3c2[nH]c2ccccc23)cc(OC)c1OC", "false"),
    ("CCNS(=O)(=O)c1ccc(C)cc1", "false"),
    ("O=C(Nc1cccc(Cl)c1)Nc1cc(C(F)(F)F)ccc1Cl", "true"),
    ("OC(c1cc2cc(Cl)ccc2c2cc(C(F)(F)F)ccc12)C1CCCCN1 (stereo not given)", "true"),
]

----------
Test system: NCI-H322M lung
Assay: NCI-60 one-dose screen, 48 h (100 = growth as untreated, 0 = no growth, -100 = all killed)
Details: 10 µM unless noted
About 83,000 compounds went through this panel and 20% of them were active in at least one assay; those are over-represented in the sample as a whole.
ENDPOINT_LABEL: growth (%)

# COMPOUND, ENDPOINT_LABEL, UNIT_TAG, REPORTED
measured = [
    ("Cc1ccc(O)c(Cc2ccccc2)c1", "growth", "%", 112),
    ("CC(COC(=O)c1ccccc1)N1CC2CCC(C1)O2 (stereo not drawn)", "growth", "%", 97.8),
    ("O=C1/C(=C\\c2cccn2Cc2ccc(F)cc2)c2ccccc2N1c1c(Cl)cccc1Cl", "growth", "%", 69.4),
]

----------
Test system: CCRF-CEM leukemia
Test: NCI-60 one-dose screen, 48 h (100 = growth as untreated, 0 = no growth, -100 = all killed)
Conditions: 10 µM unless noted
Method: Growth inhibition of the CCRF-CEM human tumor cell line is measured as a screen for anti-cancer activity. Cells are grown in 96 well plates and exposed to the test compound for 48 hours. Compounds are tested at a single concentration, which is 10^-5 M for most compounds. The reported endpoint is percent growth (GI% or GIPRCNT), where numbers from 0 - 100% represent growth inhibition, and numbers from -100% - 0 represent cell death. For example, a value of 40 represents 60% growth inhibition. […]
This is part of a sample that, as a whole, favours compounds with a hit. Of some 83,000 tested, about 20% had one in any assay. The source made the active and inactive calls. Rule for the calls: active = growth percent below 10; inactive = the rest.
A collection of compounds and their measured growth
ENDPOINT_LABEL: growth

# COMPOUND, REPORTED
measured = [
    ("COc1ccc2[nH]c(C(=O)OCc3ccc4cccc(O)c4n3)cc2c1", "4.41% (active)"),
    ("COc1ccc(/C=C/C(=O)c2ccc(NC(=O)CSc3nnc(-c4ccc(Cl)cc4)n3-c3ccccc3)cc2)cc1", "94.9% (inactive)"),
    ("N#CC1=C(N)Oc2nc[nH]c(=O)c2C1c1cccs1 (centres undefined)", "95% (inactive)"),
    ("COc1ccc2[nH]c(O)c(/C=c3/ccc4c(c3)N=C(c3ccc(C(F)(F)F)cc3)N=4)c2c1", "23.2% (inactive)"),
]

----------
Test system: A498 renal
Assay: NCI-60 one-dose screen, 48 h
Details: 10 µM unless noted
The panel holds about 83,000 compounds, 20% with a hit somewhere; the sample as a whole holds those more often. Activity calls are given as the source filed them. How the source made its calls: active means growth percent below 10; inactive means the rest.
Labels: true (1) = active, false (0) = inactive

# MOLECULE, LABEL_CLASS
records = [
    ("N#CC1=C(N)Oc2nc[nH]c(=O)c2C1c1cccs1 (stereo unspecified)", "false (0)"),
    ("C=CCn1c(C)nc2cc(Nc3nc(N4CCCC4)nc4nc[nH]c34)ccc21", "true (1)"),
    ("CCc1ccc(Nc2cc(C)c3ccc(O)cc3n2)cc1", "false (0)"),
    ("CNC(=O)c1cc(Oc2ccc(NC(=O)c3nc(S(C)(=O)=O)sc3-c3ccc(F)cc3)cc2)ccn1", "false (0)"),
    ("COc1cc2nccc(Oc3ccc(NC(=O)C4(C(=O)Nc5c(F)cc(F)cc5F)CC4)cc3)c2cc1Oc1ccc(N)cn1", "true (1)"),
    ("CN1CCN(c2ccc(N3Cc4ccccc4OC4=C3C(=O)c3c(O)ccc(O)c3C4=O)cn2)CC1", "true (1)"),
]

Reference for the values: PubChem BioAssay (NCI)
